tested on: working termites and soldier termites (Coptotermes formosanus); assay: whole plant or invertebrate; type: in vivo; details: Coptotermes formosanus, read-out: Mortality termites after three weeks
Property: mortality at 0.32 ppm; scope: individual compounds
# include the unit after the value

Report mortality at 0.32 ppm for O=[N+]([O-])N=C1NCCN1Cc1ccc(Cl)nc1 tested on working termites and soldier termites (Coptotermes formosanus).
100%

Report mortality at 0.32 ppm for CCOP(=S)(OCC)O/N=C(\C#N)c1ccccc1 [A, reference compound] tested on working termites and soldier termites (Coptotermes formosanus).
0%

Report mortality at 0.32 ppm for O=[N+]([O-])C=C1SCCN1Cc1ccc(Cl)nc1 tested on working termites and soldier termites (Coptotermes formosanus).
100%

Report mortality at 0.32 ppm for O=[N+]([O-])C=C1NCCN1Cc1ccc(Cl)nc1 tested on working termites and soldier termites (Coptotermes formosanus).
98%
